Biological target: Gcr1 (UniProt P07261)
Sequence: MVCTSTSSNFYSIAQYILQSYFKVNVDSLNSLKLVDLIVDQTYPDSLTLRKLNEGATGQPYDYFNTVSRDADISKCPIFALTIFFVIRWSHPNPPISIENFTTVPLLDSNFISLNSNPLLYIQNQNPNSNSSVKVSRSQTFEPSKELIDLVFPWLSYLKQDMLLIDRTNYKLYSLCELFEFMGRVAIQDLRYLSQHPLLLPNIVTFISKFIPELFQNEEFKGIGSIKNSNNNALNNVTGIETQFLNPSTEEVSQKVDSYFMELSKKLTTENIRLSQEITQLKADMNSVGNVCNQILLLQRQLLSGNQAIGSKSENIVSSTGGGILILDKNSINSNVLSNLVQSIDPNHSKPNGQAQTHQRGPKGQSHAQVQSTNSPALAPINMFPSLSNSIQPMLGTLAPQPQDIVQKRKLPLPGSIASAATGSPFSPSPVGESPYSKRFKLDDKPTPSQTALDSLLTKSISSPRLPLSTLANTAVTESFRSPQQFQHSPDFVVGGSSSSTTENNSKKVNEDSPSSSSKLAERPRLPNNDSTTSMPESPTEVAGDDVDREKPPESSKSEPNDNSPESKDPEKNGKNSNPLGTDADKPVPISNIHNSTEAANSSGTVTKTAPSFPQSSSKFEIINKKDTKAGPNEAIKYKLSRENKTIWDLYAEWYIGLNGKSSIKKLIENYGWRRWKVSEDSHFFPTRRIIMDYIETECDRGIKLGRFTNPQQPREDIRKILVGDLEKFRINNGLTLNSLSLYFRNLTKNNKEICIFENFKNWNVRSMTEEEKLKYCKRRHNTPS
Experiment: PBM E-score (8-mer binding enrichment) (E-score (-0.5 to 0.5)); higher = stronger / more preferred TF binding
Details: protein concentration: 100 nM; construct: GST-full length
The full ranking holds about 33,000 sequences; the median of “E-score (-0.5 to 0.5)” is about -0.011, and the highest 2% start at about 0.28. This is one part of a sample in which the highest values are shown more often than they occur.
For each entry below, report its PBM E-score value.

Task: Query the reported PBM E-score for Gcr1 (UniProt P07261); item: AACTGGAC
Output: 0.198

Task: # iterate: ATTTAGGG
Output: 0.196

Task: # iterate: AGGGAACC
Output: 0.203
